Experiment: in vitro
Assay type: cell-based
Settings: human, Caco-2; EC50 host cell/EC50 T. gondii; read-out: Caco-2 fold selectivity
Method: For the toxicity screen, compounds were tested in 96-well plates using all the wells as no edge affect was observed. […] Alternatively, plates fixed with 4% formaldehyde for 10 min and stained with 10 μg/mL Hoeschst 33342 (Sigma) for 20 min and imaged using a Cytation 3 multi-mode imager (DAPI, 10x objective, 4 images/well) and nuclei quantified using the Gen5 imager software (v3.08). […]
Below, each of the compounds is paired with its reported selectivity ratio value.
reportedEndpoint: selectivity ratio

[[record]]
smilesnotation = "COc1ccc(NC(=O)N2CCCCN3[C@H](CN(C)S(C)(=O)=O)[C@H](c4ccc(C#Cc5ccccc5)cc4)[C@@H]3C2)cc1"
observedresult = 571

[[record]]
smilesnotation = "COc1ccc(NC(=O)N2CCCCN3[C@H](CO)[C@H](c4ccc(C#Cc5ccccc5)cc4)[C@@H]3C2)cc1"
observedresult = 270


Source listed as paper PMC8786932.
